# setup conditions: 25 °C
property: solubility

Given CCC(CC)COC(=O)NS(N)(=O)=O , state its recorded solubility. 17.8 mM

Looking for the measured solubility of CCCCC(C)C(C)O (stereo not given) , can you help? 8.75 mM

Which solubility is reported for this compound? CCC(C)[C@@H](NC(C)=O)C(=O)O (mixture of isomers) 177 mM

# solubility lookup, item CCc1nc2c(c(=O)n(C)c(=O)n2C)n1C 27 mM

Look up solubility: CCNCNC(=O)c1ccccc1 842 mM

# query: solubility of entry CCCCCCCCCCNC(=O)C(C)O (stereo not given) 0.436 mM

Reported solubility for NS(=O)(=O)c1cccc(S(N)(=O)=O)c1 : what is it? 6.77 mM

Any idea what solubility was measured for CO[C@H](C)[C@H](N)C(=O)O (racemic) ? 3100 mM

Can you share its solubility? I mean this compound: CC(=O)N[C@@H](CC(C)C)C(=O)O 46.8 mM

So what does the record say about solubility for CC(Cl)C(C)(C)O (stereo not given) ? 510 mM

Would you kindly share the measured solubility for CCCS ? 25 mM

Report solubility for C[C@@H](N)C(C)(C)C please. 9690 mM

Could you tell me which solubility is on file for CCCCOC(=O)CCOCC ? 23 mM

For the compound shown here, O=C1OCc2ccc(I)cc21 , give the reported solubility. 0.615 mM

Bench note: what solubility did CCCCP(=O)(CCCC)OCC show? 63 mM

---

# setup conditions: 25 °C
Classification field: enter True for solubility values not below 90 mM, False for values below it.

Evaluate COc1ccc(C(=O)CCC(=O)O)cc1 : solubility at minimum 90 mM? False

Kindly determine if solubility recorded for CCN(C(N)=O)c1ccccc1C is above or exactly 90 mM. True

Dear colleague, could you confirm whether CC1=C(C(=O)O)CCC1(C)C has solubility at or above 90 mM? False

Check this compound for solubility at or above 90 mM: COC(=O)OC(C)C(=O)OC (stereo not drawn) True

Would you say CCCC(=O)Oc1ccc([N+](=O)[O-])cc1 shows solubility at minimum 90 mM? False

Answer whether solubility of CCCCOP(=O)(OC)OCCCC is greater than or equal to 90 mM. False

Is the recorded value of solubility equal to or greater than 90 mM for this compound? CC(=O)Nc1ccc2c(c1)C(=O)OC2 False

Does Cc1ccccc1N(C)C(N)=O have a reported solubility of at least 90 mM? True

---

# setup conditions: 25 °C
solubility vs 40 mM: at or above is fulfilled, below is not fulfilled.

Check if solubility >= 40 mM (inclusive). Item: Oc1ccc(C2CCCCC2)c(O)c1 not fulfilled

Hi, just wondering whether Cc1cc(Cl)c(O)c(Cl)c1 shows solubility of 40 mM or higher. not fulfilled

Kindly determine if solubility recorded for CC(=O)c1cc(O)c(O)c(O)c1 is above or exactly 40 mM. not fulfilled

Exam item: decide whether the reported solubility for OCc1cccc(CO)c1 is at least 40 mM. fulfilled

State whether the measured solubility reaches 40 mM, counting equality as reaching it, for CC(C)CC(=O)Oc1ccc([N+](=O)[O-])cc1 not fulfilled

Could you verify whether the entry CCCCC(O)CN(N=Cc1ccc([N+](=O)[O-])o1)C(N)=O (stereo unspecified) shows solubility of no less than 40 mM? not fulfilled

Determine whether this compound has solubility no lower than 40 mM: CCC(=O)OC(C)C(=O)OC (stereo unspecified) fulfilled

Could you verify whether the entry CCCCC(=O)Oc1ccc([N+](=O)[O-])cc1 shows solubility of no less than 40 mM? not fulfilled

Determine whether measured solubility meets or exceeds 40 mM for O=C(O)c1ccc2ncccc2c1 fulfilled

Can CCC1(CC)OC(=O)c2ccccc21 be said to have solubility at or above 40 mM? not fulfilled

Hi, just wondering whether CC(C)C1CCC(=NO)C(=NO)C1 (stereo unspecified) shows solubility of 40 mM or higher. not fulfilled

# bool: solubility of O=C(O)c1ccc(O)cc1O >= 40 mM not fulfilled

Can CCCC(C)(O)CCC be said to have solubility at or above 40 mM? not fulfilled

Evaluate Cc1ccc(S(=O)(=O)Oc2ccccc2C)cc1 : solubility at minimum 40 mM? not fulfilled

State whether the measured solubility reaches 40 mM, counting equality as reaching it, for CCOC(=S)SC(C)C(=O)O (stereo unspecified) not fulfilled

Is reported solubility greater than or equal to 40 mM here: CCCOC(=O)c1cccnc1 fulfilled

Reported solubility reaches at least 40 mM for CCCCOP(=O)(CCCC)OCCCC ? not fulfilled

Is reported solubility greater than or equal to 40 mM here: NC(=O)c1cccc(S(N)(=O)=O)c1 not fulfilled

Check the entry N#CI : does solubility equal or exceed 40 mM? fulfilled

In plain terms: is recorded solubility at least 40 mM for Cc1nc(Br)[nH]c1[N+](=O)[O-] ? not fulfilled

Reported solubility at or above 40 mM? O=C(O)CCCCCCNS(=O)(=O)c1ccccc1 not fulfilled

Textbook exercise: given the entry N#CCCN(CCC#N)C(CC(=O)O)C(=O)O (racemic) , state whether its solubility is greater than or equal to 40 mM. not fulfilled

API: above_or_equal(metric=solubility, cutoff=40 mM) for item COc1cc(Br)c2c(c1OC)C(=O)OC2 not fulfilled

Does NS(=O)(=O)c1ccc(S(N)(=O)=O)cc1 have a reported solubility of at least 40 mM? not fulfilled

Quick check, solubility >= 40 mM? CC(CCC(=O)O)NC(=O)c1ccccc1 (stereo unspecified) not fulfilled

State whether the measured solubility reaches 40 mM, counting equality as reaching it, for CNC(=O)N(C)C(=O)CC#N fulfilled

Given O=C(O)c1ccc([N+](=O)[O-])c(C(=O)O)c1 , state whether its solubility is at least 40 mM. fulfilled

Given the entry Cc1nc2c(c(=O)n(C)c(=O)n2C)n1C , answer whether its solubility meets or surpasses 40 mM. not fulfilled

Reported solubility reaches at least 40 mM for O=C1CC=CS1 ? fulfilled

Assess whether reported solubility for CCCCCCCCOC(=O)C(C)O (stereo unspecified) sits at 40 mM or higher. fulfilled

Is solubility at least 40 mM? Consider C[Si](C)(C)CCCN not fulfilled

---

# setup conditions: 20 °C
property: log10(solubility) (log10 of the value in mM)
Log10 applied to solubility; unit prior to transform: mM.

I'd like to know its log10(solubility). The compound in question is O=c1cc[nH]cn1 3.59

What measured log10(solubility) goes with Cc1cc(C)cc(OCC(=O)O)c1 ? 0.65

Which value of log10(solubility) has been reported for CC(=O)Nc1ccc(S(=O)(=O)Nc2ccccn2)cc1 in the records? -0.72

Reported log10(solubility), compound NC(=O)C(Br)(Br)Br : ____ 1.73

For the compound O=C(O)C(Br)=C(Br)I , what log10(solubility) is on record? 1.98

Consider the compound COc1c(C(=O)O)oc2ccccc12 and give its measured log10(solubility). 0.11

Form field: reported log10(solubility) of O=C(O)c1cc(Cl)ccc1O 1.76

# get_value(readout='log10(solubility)', item= Oc1ccc2c(c1)Sc1ccccc1N2 ) 0.42

Quick check: log10(solubility) of CC=C(CCCC)C(N)=O ? 1.63

Dear colleague, I am looking for the recorded log10(solubility) of the following compound: NNC(=O)c1cccnc1 2.86

Request the reported log10(solubility) associated with Nc1ncc2[nH]cnc2n1 1.79

If you can, please state the reported log10(solubility) value of CN(C)c1ncc2nccnc2n1 . 3.36

# get_value(readout='log10(solubility)', item= C=CS(=O)(=O)Nc1ccccc1 ) 1.50

Query: log10(solubility); subject: NC(=O)CBr 3.06

Fill blank: measured log10(solubility) of the compound CNc1ncc2nccnc2n1 is ____. 1.29

Suppose we examine the compound CCC(C#N)(CC)C(=O)NC(N)=O ; what log10(solubility) value has been reported? 1.44

---

# setup conditions: 25 °C
property: solubility (mM)
Just the number in mM, nothing appended.

Report solubility for CC(=O)NCCNC(C)=O please. 4740

Endpoint output: solubility of O=C(Nc1ccccn1)c1cccnc1 . Value? 1.05

What value of solubility has been reported for the following compound? N#CSc1ccc(N)cc1 2.5

Entry under review: Nc1cc([N+](=O)[O-])ccc1I . Reported solubility? 0.0379

Item under review: CCCCOCCC(=O)OC . Reported solubility? 51.2

Recorded solubility for CN1c2ccccc2C(O)(c2ccccc2)c2ccccc21 , please? 0.125

Suppose we examine the compound CCCCOC(=O)c1cccnc1 ; what solubility value has been reported? 14.6

Requested read-out: solubility. Entry: CCOCCC(=O)OC 847

Value lookup for solubility; key = O=C(O)CCC[Se][Se]CCCC(=O)O 5.66

I have this compound here, O=C(O)c1cccs1 , and I need its recorded solubility. 58.5

Report solubility for CC(CC(C)C(=O)O)C(=O)O (stereo unspecified) please. 350

Returns the measured solubility for the input compound. Input: CCCOP(=O)(OCC)OCCC 105

Bench note: what solubility did Cc1cc(C)nc(N)n1 show? 325

Would you mind telling me what solubility value was observed for CC(C)C[C@H](N)C(=O)N[C@H](CCC(N)=O)C(=O)O ? 27

# query: solubility of entry COS(=O)(=O)c1ccccc1 18.1

Returns the measured solubility for the input compound. Input: Cc1cc(O)c(Cc2ccccc2)c(C)c1Cl 0.05
